Target: EGFR (d746-750 (d19)/T790M) (Homo sapiens (Human), UniProt P00533, DEL746-750/T790M)
Sequence (P00533 other isoform, or with tags, fused parts or gaps T790M/del 1-668/del 746-750 limits assumed): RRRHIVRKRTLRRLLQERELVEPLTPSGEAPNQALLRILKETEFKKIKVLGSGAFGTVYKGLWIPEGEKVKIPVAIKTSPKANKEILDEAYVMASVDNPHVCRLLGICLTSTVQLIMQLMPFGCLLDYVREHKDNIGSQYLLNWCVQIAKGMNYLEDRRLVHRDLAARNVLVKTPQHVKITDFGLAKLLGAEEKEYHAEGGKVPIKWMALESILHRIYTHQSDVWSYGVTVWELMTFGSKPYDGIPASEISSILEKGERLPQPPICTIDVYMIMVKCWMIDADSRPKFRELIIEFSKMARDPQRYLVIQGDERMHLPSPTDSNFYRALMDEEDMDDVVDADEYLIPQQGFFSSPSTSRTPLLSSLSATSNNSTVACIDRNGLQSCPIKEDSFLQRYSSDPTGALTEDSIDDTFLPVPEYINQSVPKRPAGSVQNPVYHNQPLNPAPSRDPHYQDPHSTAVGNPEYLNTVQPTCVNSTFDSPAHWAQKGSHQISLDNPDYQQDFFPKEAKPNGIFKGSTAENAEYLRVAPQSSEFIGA
Assay Method Text: Inhibitory activity for EGFR (d746-750 (d19)/T790M) kinase
Applied Conditions: ATP 5 μM
Readout Kind: IC50 (nM)

1. Cc1cc2cc(n1)-c1cnn(C)c1OCCC[C@@H](C1CC1)CN1/C(=N/C2=O)Nc2ccc(NCCCN3CCCC3)cc21 ... 0.018

[1] CCN1CCC(Nc2ccc3c(c2)N/C2=N\C(=O)c4cc(C)nc(c4)-c4cnn(C)c4OCCC[C@@H](C4CC4)CN23)CC1
[2] Cc1cc2cc(n1)-c1cnn(C)c1OCCC[C@@H](C1CC1)CN1/C(=N/C2=O)Nc2ccc(N[C@H]3CC[C@H](N(C)C)C3)cc21
query: Short answer wanted: higher IC50, 1 or 2 ? State your choice using its label.
result: 2
(2: 0.15 nM, 1: 0.017 nM)

====

Assay Method Text: In vivo pharmacokinetics in ICR mice
Applied Conditions: mouse, plasma, 1 mg/kg, IV, read-out: AUC(0-t)
Readout Kind: AUC(0-t) (ng·h/mL)

1. Cc1cc2cc(n1)-c1cnn(C)c1OCCC[C@@H](C1CC1)CN1/C(=N/C2=O)Nc2ccc(N(C)C3CCN(C)CC3)cc21 ... 284
2. Cc1cc2cc(n1)-c1cnn(C)c1OCCC[C@@H](C1CC1)CN1/C(=N/C2=O)Nc2ccc(N[C@H]3C[C@H](N(C)C)C3)cc21 ... 214

[I] Cc1cc2cc(n1)-c1cnn(C)c1OCCC[C@@H](C1CC1)CN1/C(=N/C2=O)Nc2cc(NCCCN3CCOCC3)ccc21
[II] Cc1cc2cc(n1)-c1cnn(C)c1OCCC[C@@H](C1CC1)CN1/C(=N/C2=O)Nc2cc(NC3(C)COC3)ccc21
query: So which one has the bigger AUC(0-t) here, I or II ? Write down the label of the entry you select.
result: II
(II: 845 ng·h/mL, I: 233 ng·h/mL)

====

Assay Method Text: In vivo pharmacokinetics in ICR mice
Applied Conditions: mouse, plasma, PO, 10 mg/kg intragastric, read-out: Cmax
Readout Kind: Cmax (ng/mL)

1. Cc1cc2cc(n1)-c1cnn(C)c1OCCC[C@@H](C1CC1)CN1/C(=N/C2=O)Nc2cc(NCCCN3CCCCC3)ccc21 ... 138

[a] Cc1cc2cc(n1)-c1cnn(C)c1OCCC[C@@H](C1CC1)CN1/C(=N/C2=O)Nc2cc(NCCCN3CCOCC3)ccc21
[b] Cc1cc2cc(n1)-c1cnn(C)c1OCCC[C@@H](C1CC1)CN1/C(=N/C2=O)Nc2cc(N[C@@H](C)CN(C)C)ccc21
query: Lab notebook, comparison: a versus b , higher Cmax goes to which? // return label of chosen record
result: b

====

Property: pIC50; scope: individual compounds
Test system: PC-9 EGFR-Del19-T790M-C797S cells
Assay Method Text: Inhibition of proliferation of PC-9-EGFR (Del19 T790M C797S) cells, CCK-8
Format: cell-based
Applied Conditions: 72 h, read-out: PC-9-EGFR (Del19 T790M C797S) cell inhibitory activity IC50
pIC50: −log10 of the molar value.

1. Cc1cc2cc(n1)-c1cnn(C)c1OCCC[C@@H](C1CC1)CN1/C(=N/C2=O)Nc2cc(N[C@H]3CC[C@@H](N(C)C)CC3)ccc21 [Example 26] ... > 7.30
2. Cc1cc2cc(n1)-c1cnn(C)c1OCCC[C@@H](C1CC1)CN1/C(=N/C2=O)Nc2cc(N[C@H]3C[C@H](N(C)C)C3)ccc21 [Example 126] ... > 7.30
3. Cc1cc2cc(n1)-c1cnn(C)c1OCCC[C@@H](C1CC1)CN1/C(=N/C2=O)Nc2cc(N[C@H]3CC[C@H](N(C)C)CC3)ccc21 [Example 25] ... > 7.30
4. Cc1cc2cc(n1)-c1cnn(C)c1OCCC[C@@H](C1CC1)CN1/C(=N/C2=O)Nc2cc(N[C@H](C)C3COC3)ccc21 [Example 39] ... > 7.30

Turning now to a further compound:
query: Given the entry Cc1cc2cc(n1)-c1cnn(C)c1OCCC[C@@H](C1CC1)CN1/C(=N/C2=O)Nc2ccc(NCCN(C)C)cc21 [Example 28] , report its measured pIC50.
result: > 7.30

====

A collection of compounds and their measured IC50
Tested on: PC-9 EGFR-Del19-T790M-C797S cells
Assay Method Text: Inhibition of proliferation of PC-9-EGFR (Del19 T790M C797S) cells, CCK-8
Type: cell-based
Applied Conditions: 72 h, read-out: PC-9-EGFR (Del19 T790M C797S) cell inhibitory activity IC50

The cases that follow already have their IC50 on record.
1. Cc1cc2cc(n1)-c1cnn(C)c1OCCC[C@@H](C1CC1)CN1/C(=N/C2=O)Nc2cc(NC3(C)COC3)ccc21 ... < 50 nM
2. Cc1cc2cc(n1)-c1cnn(C)c1OCCC[C@@H](C1CC1)CN1/C(=N/C2=O)Nc2ccc(N[C@H]3CC[C@@H](N(C)C)CC3)cc21 ... < 50 nM

query: IC50 for Cc1cc2cc(n1)-c1cnn(C)c1OCCC[C@@H](C1CC1)CN1/C(=N/C2=O)Nc2ccc(N[C@H](C)CCN3CCCCC3)cc21 ?
result: < 50 nM

query: Data request, read-out IC50, for Cc1cc2cc(n1)-c1cnn(C)c1OCCC[C@@H](C1CC1)CN1/C(=N/C2=O)Nc2ccc(NC(C)CN(C)C)cc21 (stereo partly shown)
result: < 50 nM

query: # query: IC50 of entry Cc1cc2cc(n1)-c1cnn(C)c1OCCC[C@@H](C1CC1)CN1/C(=N/C2=O)Nc2cc(N[C@H](C)CCN3CCCCC3)ccc21
result: < 50 nM

query: Fill blank: measured IC50 of the compound Cc1cc2cc(n1)-c1cnn(C)c1OCCC[C@@H](C1CC1)CN1/C(=N/C2=O)Nc2ccc(N[C@H]3C[C@H](N(C)C)C3)cc21 is ____.
result: < 50 nM

query: # query: IC50 of entry Cc1cc2cc(n1)-c1cnn(C)c1OCCC[C@@H](C1CC1)CN1/C(=N/C2=O)Nc2ccc(NC3CCN(C(C)C)CC3)cc21
result: < 50 nM

query: Returns the measured IC50 for the input compound. Input: Cc1cc2cc(n1)-c1cnn(C)c1OCCC[C@@H](C1CC1)CN1/C(=N/C2=O)Nc2cc(NC3CCN(C(C)C)CC3)ccc21
result: < 50 nM

query: Fill in: IC50 of [2H]C([2H])([2H])N(CCN(C)C)c1ccc2c(c1)N1C[C@H](C3CC3)CCCOc3c(cnn3C)-c3cc(cc(C)n3)C(=O)/N=C/1N2 is ___
result: < 50 nM

query: Give its IC50 value. Item: Cc1cc2cc(n1)-c1cnn(C)c1OCCC[C@@H](C1CC1)CN1/C(=N/C2=O)Nc2ccc(N(C)CCN(C)C)cc21
result: < 50 nM

query: Need IC50, item Cc1cc2cc(n1)-c1cnn(C)c1OCCC[C@@H](C1CC1)CN1/C(=N/C2=O)Nc2ccc(NCCCN3CCOCC3)cc21
result: < 50 nM

query: Reported IC50 for Cc1cc2cc(n1)-c1cnn(C)c1OCCC[C@@H](C1CC1)CN1/C(=N/C2=O)Nc2ccc(N(C)[C@@H](C)CN(C)C)cc21 : what is it?
result: < 50 nM

query: Fill blank: measured IC50 of the compound Cc1cc2cc(n1)-c1cnn(C)c1OCCC[C@@H](C1CC1)CN1/C(=N/C2=O)Nc2cc(NCCCN(C)C)ccc21 is ____.
result: < 50 nM

====

Tested on: BAF3-EGFR (del19/T790M/C797S) cells
Assay Method Text: Inhibition of proliferation of BAF3-EGFR (Del19/T790M/C797S) cells, CCK-8
Format: cell-based
Applied Conditions: Ba/F3 EGFR-Del19/T790M/C797S, 72 h, read-out: BAF3(EGFR T790M Del19 C797S) cell inhibitory activity IC50
Known IC50 of a selection of compounds

1. Cc1cc2cc(n1)-c1cnn(C)c1OCCC[C@@H](C1CC1)CN1/C(=N/C2=O)Nc2cc(N(C)C3COC3)ccc21 ... < 1 nM
2. Cc1cc2cc(n1)-c1cnn(C)c1OCCC[C@@H](C1CC1)CN1/C(=N/C2=O)Nc2cc(NC(C)C3(C)COC3)ccc21 (some centres unmarked) ... < 1 nM
3. CCC1(Nc2ccc3c(c2)N/C2=N\C(=O)c4cc(C)nc(c4)-c4cnn(C)c4OCCC[C@@H](C4CC4)CN23)COC1 ... < 1 nM
4. Cc1cc2cc(n1)-c1cnn(C)c1OCCC[C@@H](C1CC1)CN1/C(=N/C2=O)Nc2ccc(NC3CCN(C(C)C)CC3)cc21 ... < 1 nM
5. Cc1cc2cc(n1)-c1cnn(C)c1OCCC[C@@H](C1CC1)CN1/C(=N/C2=O)Nc2cc(NCC3(C)COC3)ccc21 ... < 1 nM
6. Cc1cc2cc(n1)-c1cnn(C)c1OCCC[C@@H](C1CC1)CN1/C(=N/C2=O)Nc2ccc(N[C@@H](C)CN(C)C)cc21 ... < 1 nM
7. Cc1cc2cc(n1)-c1cnn(C)c1OCCC[C@@H](C1CC1)CN1/C(=N/C2=O)Nc2ccc(NC(C)CN(C)C)cc21 (some centres unmarked) ... < 1 nM
8. Cc1cc2cc(n1)-c1cnn(C)c1OCCC[C@@H](C1CC1)CN1/C(=N/C2=O)Nc2ccc(OCCN(C)C)cc21 ... < 1 nM
9. Cc1cc2cc(n1)-c1cnn(C)c1OCCC[C@@H](C1CC1)CN1/C(=N/C2=O)Nc2cc(NC3(C)COC3)ccc21 ... < 1 nM
10. Cc1cc2cc(n1)-c1cnn(C)c1OCCC[C@@H](C1CC1)CN1/C(=N/C2=O)Nc2cc(NCC3COC3)ccc21 ... < 1 nM

query: What reported IC50 corresponds to Cc1cc2cc(n1)-c1cnn(C3CC3)c1OCCC[C@@H](C)CN1/C(=N/C2=O)Nc2ccc(NCCN(C)C)cc21 on BAF3-EGFR (del19/T790M/C797S) cells?
result: < 1 nM

query: Item Cc1cc2cc(n1)-c1cnn(C)c1OCCC[C@@H](C1CC1)CN1/C(=N/C2=O)Nc2ccc(NCCCN3CCOCC3)cc21 with BAF3-EGFR (del19/T790M/C797S) cells - IC50?
result: < 1 nM

query: Please provide the recorded IC50 for Cc1cc2cc(n1)-c1cnn(C)c1OCCC[C@@H](C1CC1)CN1/C(=N/C2=O)Nc2cc(NCCN3CCCC3)ccc21 , tested on BAF3-EGFR (del19/T790M/C797S) cells.
result: < 1 nM

query: Reported IC50 for BAF3-EGFR (del19/T790M/C797S) cells, given CCC1(CNc2ccc3c(c2)N/C2=N\C(=O)c4cc(C)nc(c4)-c4cnn(C)c4OCCC[C@@H](C4CC4)CN23)COC1 ?
result: < 1 nM

query: Hello, I am looking for reported IC50 with BAF3-EGFR (del19/T790M/C797S) cells for Cc1cc2cc(n1)-c1cnn(C)c1OCCC[C@@H](C1CC1)CN1/C(=N/C2=O)Nc2cc(NCCCN(C)C)ccc21 . Could you help?
result: < 1 nM

query: Look up IC50 with BAF3-EGFR (del19/T790M/C797S) cells for this compound: Cc1cc2cc(n1)-c1cnn(C)c1OCCC[C@@H](C1CC1)CN1/C(=N/C2=O)Nc2ccc(N[C@H](C)CN(C)C)cc21
result: < 1 nM

query: Notebook: pull reported IC50 for BAF3-EGFR (del19/T790M/C797S) cells, entry Cc1cc2cc(n1)-c1cnn(C)c1OCCC[C@@H](C1CC1)CN1/C(=N/C2=O)Nc2ccc(NCCN3CCCC3)cc21
result: < 1 nM
